Biological target: human recombinant Aurora B (Homo sapiens (Human), UniProt Q96GD4)
Sequence (Q96GD4 whole entry): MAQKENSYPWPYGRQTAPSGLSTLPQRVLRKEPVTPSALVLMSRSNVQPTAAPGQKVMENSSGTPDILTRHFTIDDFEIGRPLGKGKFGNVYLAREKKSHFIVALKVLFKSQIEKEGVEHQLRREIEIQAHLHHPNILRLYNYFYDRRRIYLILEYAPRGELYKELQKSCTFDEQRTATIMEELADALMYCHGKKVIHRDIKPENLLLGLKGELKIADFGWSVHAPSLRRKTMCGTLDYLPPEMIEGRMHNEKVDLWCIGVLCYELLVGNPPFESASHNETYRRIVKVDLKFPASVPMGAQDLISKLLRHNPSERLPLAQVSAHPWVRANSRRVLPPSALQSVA
Test: Aurora B Kinase Biochemical Assay (ADP-Glo)
Settings: ratio of Aurora B IC50 to PLK4 IC50 (selectivity)
ASSAY_ENDPOINT: [Aurora B IC50 (nM)]/[PLK4 IC50 (nM)]
Form field (numeric): enter value without unit.

Please report the recorded [Aurora B IC50 (nM)]/[PLK4 IC50 (nM)] for COc1cnc(C)nc1Nc1n[nH]c2cc([C@@H]3C[C@@]34C(=O)N(C)c3ccccc34)ccc12 .
11.87

Quick one: [Aurora B IC50 (nM)]/[PLK4 IC50 (nM)] for COc1ccc2c(c1)[C@]1(C[C@H]1c1ccc3c(Nc4ncnc(N5CCC5)c4OC)n[nH]c3c1)C(=O)N2 ?
42.3

Item COc1ccc2c(c1)[C@]1(C[C@H]1c1ccc3c(Nc4nc(C5CC5)nc(N5CCS(=O)(=O)CC5)c4Cl)n[nH]c3c1)C(=O)N2 has what recorded [Aurora B IC50 (nM)]/[PLK4 IC50 (nM)]?
512.7157

Fill in: [Aurora B IC50 (nM)]/[PLK4 IC50 (nM)] of COc1ccc2c(c1)[C@]1(C[C@H]1c1ccc3c(Nc4cc(C)c(C(=O)N(C)C)nc4OC)n[nH]c3c1)C(=O)N2 is ___
582.2189

# lookup: [Aurora B IC50 (nM)]/[PLK4 IC50 (nM)] of COc1ccc2c(c1)[C@]1(C[C@H]1c1ccc3c(Nc4nc(Cl)c(OC)c(N5CCOCC5)n4)n[nH]c3c1)C(=O)N2
53.19

GET /values?readout=[Aurora B IC50 (nM)]/[PLK4 IC50 (nM)]&item= COc1ccc2c(c1)[C@]1(C[C@H]1c1ccc3c(Nc4cn(C)nc4OC)n[nH]c3c1)C(=O)N2
28.1

Name the reported [Aurora B IC50 (nM)]/[PLK4 IC50 (nM)] value associated with the molecule COc1cnc(C)nc1Nc1n[nH]c2cc([C@@H]3C[C@@]34C(=O)Nc3ccc(C)cc34)ccc12
92.0568

Find the recorded [Aurora B IC50 (nM)]/[PLK4 IC50 (nM)] belonging to COc1ccc2c(c1)[C@]1(C[C@H]1c1ccc3c(Nc4ncc(C(=O)N5CCC5)cc4OC)n[nH]c3c1)C(=O)N2 and report it.
181.6923

May I ask what [Aurora B IC50 (nM)]/[PLK4 IC50 (nM)] has been recorded for CCOc1cc(S(C)(=O)=O)ncc1Nc1n[nH]c2cc([C@@H]3C[C@@]34C(=O)Nc3ccc(OC)cc34)ccc12 ?
2792.6646

So what does the record say about [Aurora B IC50 (nM)]/[PLK4 IC50 (nM)] for COc1ccc2c(c1)[C@]1(C[C@H]1c1ccc3c(Nc4cc(C(C)O)cnc4OC)n[nH]c3c1)C(=O)N2 (mixture of isomers) ?
492.8831

Param item = COc1ccc2c(c1)[C@]1(C[C@H]1c1ccc3c(Nc4ncncc4C)n[nH]c3c1)C(=O)N2 (racemic) ; retrieve measured [Aurora B IC50 (nM)]/[PLK4 IC50 (nM)].
15.6544

If you can, please state the reported [Aurora B IC50 (nM)]/[PLK4 IC50 (nM)] value of COc1ccc2c(c1)[C@]1(C[C@H]1c1ccc3c(Nc4ccc(C(=O)NCC(F)F)nc4OC)n[nH]c3c1)C(=O)N2 .
312.3

# query: [Aurora B IC50 (nM)]/[PLK4 IC50 (nM)] of entry COc1ccc2c(c1)[C@]1(C[C@H]1c1ccc3c(Nc4nc(C5CC5)nc(N5C[C@@H](C)O[C@@H](C)C5)c4OC)n[nH]c3c1)C(=O)N2
1577.689

Report [Aurora B IC50 (nM)]/[PLK4 IC50 (nM)] for COc1ccc2c(c1)[C@]1(C[C@H]1c1ccc3c(Nc4nc(CCO)cnc4OC)n[nH]c3c1)C(=O)N2 please.
423.7686

Which [Aurora B IC50 (nM)]/[PLK4 IC50 (nM)] value belongs to COc1ccc2c(c1)[C@]1(C[C@H]1c1ccc3c(Nc4nccc5c4OCC5)n[nH]c3c1)C(=O)N2 ?
17.5546

Tell me the measured [Aurora B IC50 (nM)]/[PLK4 IC50 (nM)] of CCS(=O)(=O)c1ccc(Nc2n[nH]c3cc([C@@H]4C[C@@]45C(=O)Nc4ccc(OC)cc45)ccc23)c(OC)n1 , please.
254.6519

Which [Aurora B IC50 (nM)]/[PLK4 IC50 (nM)] value belongs to COc1ccc2c(c1)[C@]1(C[C@H]1c1ccc3c(Nc4ccc(C(=O)N5C6CCC5COC6)nc4OC)n[nH]c3c1)C(=O)N2 ?
105.5179

Which [Aurora B IC50 (nM)]/[PLK4 IC50 (nM)] is listed for COc1cnc(C)nc1Nc1n[nH]c2cc([C@@H]3C[C@@]34C(=O)Nc3ccc(F)cc34)ccc12 ?
45.1453

Record request: [Aurora B IC50 (nM)]/[PLK4 IC50 (nM)] value, item COc1ccc2c(c1)[C@]1(C[C@H]1c1ccc3c(Nc4ncnc(N5CCN(C)CC5)c4Cl)n[nH]c3c1)C(=O)N2
306.8323

Would you mind telling me what [Aurora B IC50 (nM)]/[PLK4 IC50 (nM)] value was observed for COc1ccc2c(c1)[C@]1(C[C@H]1c1ccc3c(Nc4nc(C5CNC5)cnc4OC)n[nH]c3c1)C(=O)N2 ?
232.1904

Reported [Aurora B IC50 (nM)]/[PLK4 IC50 (nM)] for COc1ccc2c(c1)[C@]1(C[C@H]1c1ccc3c(Nc4ccc(C(=O)N5CCOCC5)nc4OC)n[nH]c3c1)C(=O)N2 : what is it?
322.5703

Report [Aurora B IC50 (nM)]/[PLK4 IC50 (nM)] for COc1ccc2c(c1)[C@]1(C[C@H]1c1ccc3c(Nc4cc(C)nn4CC(F)F)n[nH]c3c1)C(=O)N2 please.
121.8987

Which [Aurora B IC50 (nM)]/[PLK4 IC50 (nM)] value belongs to COc1ccc2c(c1)[C@]1(C[C@H]1c1ccc3c(Nc4nc(N5CCOCC5)cnc4OC)n[nH]c3c1)C(=O)N2 ?
129.9724

Quick check: [Aurora B IC50 (nM)]/[PLK4 IC50 (nM)] of COc1ccc2c(c1)[C@]1(C[C@H]1c1ccc3c(Nc4nc(N5CCCC5)ncc4OC)n[nH]c3c1)C(=O)N2 ?
916.9492

Look up [Aurora B IC50 (nM)]/[PLK4 IC50 (nM)] for this molecule: COc1ccc2c(c1)[C@]1(C[C@H]1c1ccc3c(Nc4nc(OC)ncc4C)n[nH]c3c1)C(=O)N2
112.2793

If you can, please state the reported [Aurora B IC50 (nM)]/[PLK4 IC50 (nM)] value of COc1ccc2c(c1)[C@]1(C[C@H]1c1ccc3c(Nc4nc(C5CCOCC5)ncc4OC)n[nH]c3c1)C(=O)N2 .
655.2254

Tell me the measured [Aurora B IC50 (nM)]/[PLK4 IC50 (nM)] of COc1ccc2c(c1)[C@]1(C[C@H]1c1ccc3c(Nc4nc(C)ncc4OC(F)F)n[nH]c3c1)C(=O)N2 , please.
230.8807
